B1: CPEB3 Ribozyme (parent)
chain: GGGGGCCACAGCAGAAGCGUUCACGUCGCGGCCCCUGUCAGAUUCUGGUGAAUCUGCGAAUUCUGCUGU

Variants of: B1
Experiment: self-cleavage, relative activity (ratio to wild type); higher = more cleavage; co-transcriptional
Quantity name: self-cleavage

> print(dat)
    sequence.variant  measurement
 1         G65U G68A        0.919
 2         G25A C32A         0.22
 3          G2A U20C       0.0328
 4         A23G G28A        0.136
 5         C24U U26C        0.626
 6         C18G G56C        0.101
 7          C9G U61G        0.958
 8         C32U U62C        0.955
 9         G56U A60C        0.368
10         G11U A59U        0.395
11         U38G U44A        0.149
